Field: IC50. Provide a value for each of the compounds that follow.
State just the number; it will be interpreted in µM.

Please report IC50 with Human immunodeficiency virus type 1 reverse transcriptase (Human immunodeficiency virus 1) for item Oc1ncccc1C(C#CC1CC1)(OCc1ccncc1)C(F)(F)F (centres undefined) .
8.11

Please report IC50 with Human immunodeficiency virus type 1 reverse transcriptase (Human immunodeficiency virus 1) for item Oc1ncccc1C(C#CC1CC1)(OCc1ccccc1)C(F)(F)F (centres undefined) .
11.8

Please report IC50 with Human immunodeficiency virus type 1 reverse transcriptase (Human immunodeficiency virus 1) for item Oc1ncccc1C(/C=C/c1ccccc1)(OCc1ccccc1)C(F)(F)F (centres undefined) .
43.9

Please report IC50 with Human immunodeficiency virus type 1 reverse transcriptase (Human immunodeficiency virus 1) for item Oc1ncccc1C(C#Cc1ccccc1)(OCc1ccccc1)C(F)(F)F (centres undefined) .
11.7

Please report IC50 with Human immunodeficiency virus type 1 reverse transcriptase (Human immunodeficiency virus 1) for item CCCOC(C#CC1CC1)(c1cc(CC)c(C)nc1O)C(F)(F)F (centres undefined) .
0.105

Please report IC50 with Human immunodeficiency virus type 1 reverse transcriptase (Human immunodeficiency virus 1) for item CCc1cc(C(C#CC2CC2)(OCc2ccc(Cl)cc2Cl)C(F)(F)F)c(O)nc1C (centres undefined) .
2.7

Please report IC50 with Human immunodeficiency virus type 1 reverse transcriptase (Human immunodeficiency virus 1) for item CCc1cc(C(C#CC2CC2)(OCC#N)C(F)(F)F)c(O)nc1C (centres undefined) .
1.84

Please report IC50 with Human immunodeficiency virus type 1 reverse transcriptase (Human immunodeficiency virus 1) for item CCc1cc(C(C#CC2CC2)(OCC2CC2)C(F)(F)F)c(O)nc1C (centres undefined) .
0.188

Please report IC50 with Human immunodeficiency virus type 1 reverse transcriptase (Human immunodeficiency virus 1) for item Oc1ncccc1C(/C=C/C1CC1)(OCc1ccccc1)C(F)(F)F (centres undefined) .
16.7

Please report IC50 with Human immunodeficiency virus type 1 reverse transcriptase (Human immunodeficiency virus 1) for item CCc1cc(C(C#CC2CC2)(OCc2c(Cl)cccc2Cl)C(F)(F)F)c(O)nc1C (centres undefined) .
41.1

Please report IC50 with Human immunodeficiency virus type 1 reverse transcriptase (Human immunodeficiency virus 1) for item Oc1ncccc1C(C#CC1CC1)(OCc1cccnc1)C(F)(F)F (centres undefined) .
25.6

Please report IC50 with Human immunodeficiency virus type 1 reverse transcriptase (Human immunodeficiency virus 1) for item CCc1cc(C(C#CC2CC2)(OCc2c(F)cccc2OC)C(F)(F)F)c(O)nc1C (centres undefined) .
1.95

Please report IC50 with Human immunodeficiency virus type 1 reverse transcriptase (Human immunodeficiency virus 1) for item CCc1cc(C(C#CC2CC2)(OCc2ccccc2)C(F)(F)F)c(=O)[nH]c1C (centres undefined) .
1.35

Please report IC50 with Human immunodeficiency virus type 1 reverse transcriptase (Human immunodeficiency virus 1) for item Oc1nc2ccccc2cc1C(C#CC1CC1)(OCc1ccccc1)C(F)(F)F (centres undefined) .
36
